Value source: ChEMBL document CHEMBL1145498

Endpoint: ΔTm. System: Cyclin-dependent kinase-like 1 (Homo sapiens) (UniProt Q00532). Items follow.
Sequence (Q00532 whole entry): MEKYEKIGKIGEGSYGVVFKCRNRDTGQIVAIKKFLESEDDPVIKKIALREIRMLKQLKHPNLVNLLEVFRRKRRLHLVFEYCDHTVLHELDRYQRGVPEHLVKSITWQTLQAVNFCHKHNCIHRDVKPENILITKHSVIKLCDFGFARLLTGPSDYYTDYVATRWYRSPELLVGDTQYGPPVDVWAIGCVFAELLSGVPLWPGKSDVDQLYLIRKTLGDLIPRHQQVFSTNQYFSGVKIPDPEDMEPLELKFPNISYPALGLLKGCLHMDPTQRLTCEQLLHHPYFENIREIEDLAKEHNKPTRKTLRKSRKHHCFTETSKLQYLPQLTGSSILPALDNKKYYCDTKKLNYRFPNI
Value expressed in °C; do not type the unit.

> print(dat)
                            compound.smiles                               system.name  value.measured
1  Nc1cccc(-c2cc3c(Oc4cccc(O)c4)ncnc3[nH]2)c1  Cyclin-dependent kinase-like 1 (Homo sapiens) (UniProt Q00532)             0.6

Could you tell me which ΔTm is on file for C[C@@H](N)[C@H]1CC[C@H](C(=O)Nc2ccncc2)CC1 ?
-0.1

ΔTm lookup needed for N#C/C(=C\c1ccc(O)c(O)c1)C(=O)Nc1ccccc1 , thanks.
-0.1

Which ΔTm value is on record for Nc1n[nH]c2nnc(-c3c(-c4ccccc4)nn4ccccc34)cc12 ?
0.2

So what's the measured ΔTm for this one? COc1ccc2c(c1)/C(=C/c1cnc[nH]1)C(=O)N2
5.8

Fill blank: measured ΔTm of the compound O=Nc1c(-c2c(O)[nH]c3ccccc23)[nH]c2ccccc12 is ____.
3.8

Need ΔTm of COc1ccc(CNC(=O)Nc2ncc([N+](=O)[O-])s2)cc1 , thanks.
0.3

I'd like to know its ΔTm. The compound in question is Cn1cc(/C=C2/C(=O)Nc3ccc(S(N)(=O)=O)cc32)c2ccccc21
0.2

Quick one: ΔTm for NCCNS(=O)(=O)c1cccc2c(Cl)cccc12 ?
-0.1

Need ΔTm of N#CC(C#N)=Cc1ccc(O)c(O)c1 , thanks.
-0.1
